Target: Adenosine receptor A1 (Rattus norvegicus, UniProt P25099)
Sequence (P25099 whole entry): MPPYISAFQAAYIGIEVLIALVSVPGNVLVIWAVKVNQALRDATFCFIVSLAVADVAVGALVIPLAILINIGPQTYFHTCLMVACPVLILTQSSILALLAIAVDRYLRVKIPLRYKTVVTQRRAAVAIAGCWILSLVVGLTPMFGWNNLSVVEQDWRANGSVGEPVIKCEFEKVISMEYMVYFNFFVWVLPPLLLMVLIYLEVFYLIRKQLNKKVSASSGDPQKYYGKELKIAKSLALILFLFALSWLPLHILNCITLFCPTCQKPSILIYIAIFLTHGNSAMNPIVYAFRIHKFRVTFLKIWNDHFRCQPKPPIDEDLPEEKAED
Here is a set of compounds with reported Ki for Adenosine receptor A1 (Rattus norvegicus, UniProt P25099), compiled from the literature.

Examples from the recorded data:
1. O=C1NC(=O)c2c1nc(-c1ccccc1)nc2-c1ccccc1 :: ≥ 100000 nM
2. O=[N+]([O-])c1cc(NC2CCCC2)c2ncn([C@@H]3O[C@H](CO)[C@@H](O)[C@H]3O)c2n1 :: 52.6 nM
3. CCCCC#Cc1nc(N)c2ncn(C3O[C@H](C/N=C(\S)NC)[C@@H](O)[C@H]3O)c2n1 (stereo partly specified) :: > 472 nM
4. Cn1c(=O)c2c(nc3n2CCCN3CCc2cccnc2)n(C)c1=O :: > 1000 nM
5. Cn1c(=O)c2c(nc3n2CCCN3CCOC(=O)Nc2cccc(Cl)c2)n(C)c1=O :: > 10000 nM

Now look at this one.
[Q] I am curious: what Ki value has been reported for Nc1nc2c(cnn2CCOCc2ccccc2)c2nc(-c3ccco3)nn12 ?
[A] > 1000 nM
